# key: entry, value: Plant response rating, Corn
Tested on: corn
Experiment: Test A pre-/postemergence herbicide test
Assay type: in vivo, Zea mays
Settings: Preemergence, 1000 g ai/ha; visual rating on 0 to 100 scale (0 no effect, 100 complete control), approx. 10 days

>  <Compound>
CS(=O)(=O)c1ccccc1NC(=O)C1C(=O)NCC1c1ccc(F)c(F)c1 (racemic)

>  <Measured target>
corn

>  <Plant response rating, Corn>
0

$$$$
>  <Compound>
O=C1NCC(c2ccc(F)c(F)c2)C1C(=O)Nc1cccnc1C(F)(F)F (racemic)

>  <Measured target>
corn

>  <Plant response rating, Corn>
20

$$$$
>  <Compound>
Cc1ccccc1NC(=O)C1C(=O)NCC1c1ccc(F)c(F)c1 (racemic)

>  <Measured target>
corn

>  <Plant response rating, Corn>
0

$$$$
>  <Compound>
O=C1NCC(c2ccc(F)c(F)c2)C1C(=O)Nc1ccncc1F (stereo not shown)

>  <Measured target>
corn

>  <Plant response rating, Corn>
0

$$$$
